Measure: melting point (°C)
Give just the numeric value; °C need not be written.

[
  {
    "Structure Smiles": "COC(=C1NC(=O)C(=NO)C1=O)c1ccccc1",
    "U": "°C",
    "Number": 174
  },
  {
    "Structure Smiles": "O=C1NC(=Cc2ccccc2Cl)C(=O)C1=NO",
    "U": "°C",
    "Number": 176
  },
  {
    "Structure Smiles": "O=C1NC(=C(Br)c2ccccc2)C(=O)C1=NO",
    "U": "°C",
    "Number": 158
  }
]

Note: attention shifts to another entry.
Prompt: Provide measured melting point value, entry: O=C1NC(=Cc2c(Cl)cccc2Cl)C(=O)C1=NO
Completion: 232

---

Measure: melting point (°C)
Give the value in °C but do not write °C after it.

Some solved cases for reference:
[
  {
    "Structure Smiles": "O=C1NC(=Cc2ccc(Cl)cc2)C(=O)C1=NO",
    "U": "°C",
    "melting point": 190
  },
  {
    "Structure Smiles": "O=C1NC(=Cc2cccc(Cl)c2)C(=O)C1=NO",
    "U": "°C",
    "melting point": 185
  }
]

// switching to the query molecule
Prompt: Report measured melting point; entry is O=C1NC(=Cc2ccc(Cl)cc2Cl)C(=O)C1=NO
Completion: 180
